Here the recorded PBM binding z-score is given for each entry.
tested on: RARa:RXR (NR concentration 270 nM, RXRa partner concentration 90 nM); assay: PBM binding z-score (relative to random genomic background probes); higher = stronger binding; sequences stand for … in GC…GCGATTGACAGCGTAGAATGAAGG
Response field accepts a number only; no unit should be typed.

Ask: Please tell me: PBM binding z-score of `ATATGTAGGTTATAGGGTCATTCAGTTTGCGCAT` , system RARa:RXR (NR concentration 270 nM, RXRa partner concentration 90 nM)?
Result: 5.18

----------
system: RARg homodimer (NR concentration 270 nM); test: PBM binding z-score (relative to random genomic background probes); higher = stronger binding; sequences stand for … in GC…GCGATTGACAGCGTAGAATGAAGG
PBM binding z-score below 3 gives f; PBM binding z-score at or above it gives t.

>>> group_label("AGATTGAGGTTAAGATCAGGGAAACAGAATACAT")
"f"
>>> group_label("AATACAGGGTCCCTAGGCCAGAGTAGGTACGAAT")
"f"
>>> group_label("TCATATAGGTAATACCGGTGAAAGTCGGCATCTA")
"f"
>>> group_label("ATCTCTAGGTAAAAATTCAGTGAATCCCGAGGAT")
"f"
>>> group_label("GCTAGCAGGCCATTTGGGACACTCAATGACGGGC")
"f"
>>> group_label("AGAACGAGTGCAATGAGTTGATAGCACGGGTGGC")
"f"
>>> group_label("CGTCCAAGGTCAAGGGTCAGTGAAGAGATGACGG")
"t"
>>> group_label("ACTCGGAGGACAAAGGGCAGAGCTACGCCAGTGA")
"f"

Ask: Please tell me: is the sequence `CCTACTGGGCTAAAAAGGTCATTGATGCCGATAA` at or over 3 in terms of PBM binding z-score?
Result: t

Ask: Same again, this time with `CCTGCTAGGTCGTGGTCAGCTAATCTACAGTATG`
Result: f

Ask: Same again, this time with `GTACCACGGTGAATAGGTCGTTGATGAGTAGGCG`
Result: f

Ask: Same again, this time with `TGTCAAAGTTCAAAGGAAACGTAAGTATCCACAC`
Result: t

Ask: Same again, this time with `CTCCAAAGGTCGTGCTCAGGTGAGTATACCAAAC`
Result: t

Ask: Same again, this time with `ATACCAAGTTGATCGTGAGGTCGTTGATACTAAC`
Result: f

Ask: Same again, this time with `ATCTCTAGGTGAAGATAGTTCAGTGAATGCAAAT`
Result: f
